measurementTarget: T1, mCherry (Discosoma)
T1 construct: Immunogen is mCherry-His6; SPR says recombinant mCherry; also called recombinant mCherry-His6; Discosoma mCherry
testDetails: SPR, mCherry immobilized, Langmuir fit; unit inferred
pKd: −log10 of the molar value.
Consider the following binders and their measured pKd readings.
measurementLabel: pKd

LaM-6 (VHH) VHH: QVQLVESGGGLVQAGGSLRLSCVASGSAPSFFAMAWYRQSPGNERELVAALSSLGSTNYADSVKGRFTISMDNAKNTVYLQMNNVNAEDTAVYYCAAGDFHSCYARKSCDYWGQGTQVTVS
9.59
LaM-8 (VHH) VHH: QVQLVESGGGLVQAGGSLRLSCAVSGRPFSEYNLGWFRQAPGKEREFVARIRSSGTTVYTDSVKGRFSASRDNAKNMGYLQLNSLEPEDTAVYYCAMSRVDTDSPAFYDYWGQGTQVTVST
7.20
LaM-3 (VHH) VHH: QVQLVQSGGGLVQAGGSLRLSCAASGRTFSDIAVGWFRQTPGKEREFVAAISWSGLIINYGDSVEDRFTISRDNAKSAVYLQMNSLKPEDTAVYYCAARIGMNYYYAREIEYPYWGQGTQVTVS
8.72
LaM-1 (VHH) VHH: QVQLVESGGGLVQAGDSLRLSCAASGRTFENYAMGWFRQAPGKEREFVGAVSWGGGRTYYADNVKGRFTISRDNAKKNTVYLQMNSLKPEDTAVYYCAAKSVLTIATMRVPDEYNYWGQGTQVTVS
7.66
